experiment: Therapeutic index, ratio EC50 for human MRC5 SV2 cells to EC50 for Trypanosoma cruzi Tulahuen CL2 intracellular amastigotes; format: toxicity, cell-based; conditions: read-out: Ratio EC50
MEASURED ENDPOINT: selectivity ratio
I'd appreciate a reply containing only the number, no unit.

Please review the entries below; each comes with its answer.
INSERT INTO assay_data (structure_as_smiles, recorded_measurement) VALUES
  ('Cc1ccc(-c2cn([C@@H]3O[C@H](CO)C[C@H]3O)c3ncnc(N)c23)cc1Cl', 66),
  ('Nc1ncnc2c1c(-c1ccc(Cl)c(Cl)c1)cn2[C@@H]1O[C@H](CO)C[C@H]1O', 230);

What does the record list as selectivity ratio for `Cc1ccc(-c2cn([C@@H]3O[C@H](CO)C[C@H]3O)c3ncnc(N)c23)cc1` ?
46

Field request: selectivity ratio | item: `Nc1ncnc2c1c(-c1ccc(F)c(Cl)c1)cn2[C@@H]1O[C@H](CO)C[C@H]1O`
150

Please look up its selectivity ratio: `Cc1ccc(-c2cn([C@@H]3O[C@H](CO)C[C@H]3O)c3ncnc(N)c23)cc1C`
16

Quick one: selectivity ratio of `Nc1ncnc2c1c(-c1ccc(Cl)cc1)cn2[C@@H]1O[C@H](CO)C[C@H]1O` ?
410

====

target: Cytochrome P450 (family) (Homo sapiens, UniProt P04798+P05177+P05181+P08684+P10632+P10635+P11509+P11712+P13584+P20813+P20815+P20853+P24462+P24903+P33260+P33261+P51589+P78329+P98187+Q02928+Q08477+Q16678+Q16696+Q5TCH4+Q6VVX0+Q7Z449+Q8TAV3+Q96SQ9+Q9HB55); test: Drug metabolism in human liver microsome S9 fraction assessed as CYP450-mediated metabolism by measuring compound remaining at 5 uM pretreated with NADPH and measured after 15 mins by UPLC-MS/MS analysis; assay type: ADME, microsomes; settings: liver microsome S9 fraction, read-out: Stability
MEASURED ENDPOINT: remaining at 0.25 h, 5 µM (%)
Field: numeric (%). Do not append units.

INSERT INTO results (structure_as_smiles, recorded_measurement) VALUES
  ('Nc1ncnc2c1c(-c1ccc(Cl)cc1)cn2[C@@H]1O[C@H](CO)[C@@H](O)[C@H]1O', 113);

I'd like to know its remaining at 0.25 h, 5 µM. The molecule in question is `Nc1ncnc2c1c(-c1ccc(Cl)cc1)cn2[C@@H]1O[C@H](CO)C[C@H]1O`
102

====

tested on: UGT; assay: Drug metabolism in dog liver microsome S9 fraction assessed as UGT-mediated metabolism by measuring compound remaining at 5 uM pretreated with UDPGA and measured after 30 mins by UPLC-MS/MS analysis; type: ADME, microsomes, Canis lupus familiaris; settings: liver microsome S9 fraction, read-out: Stability
MEASURED ENDPOINT: remaining at 0.5 h, 5 µM (%)
Numeric answer only, unit % assumed.

INSERT INTO measurements (structure_as_smiles, measured_endpoint, recorded_measurement) VALUES
  ('Nc1ncnc2c1c(-c1ccc(Cl)cc1)cn2[C@@H]1O[C@H](CO)C[C@H]1O', 'remaining at 0.5 h, 5 µM', 96);

Let us examine a further case.
Under UGT: remaining at 0.5 h, 5 µM value of `Nc1ncnc2c1c(-c1ccc(Cl)cc1)cn2[C@@H]1O[C@H](CO)[C@@H](O)[C@H]1O` ?
70
